Assignment: determine reported koff for the given binders.
- target: T1, PD1-hFc (human, UniProt Q15116 25-170)
- T1 construct: extracellular domain; also called PD1-hFc protein; Human PD-1-Fc (S1420, Y-Biologics)
- T1 sequence (Q15116 other isoform, or with tags, fused parts or gaps limits assumed): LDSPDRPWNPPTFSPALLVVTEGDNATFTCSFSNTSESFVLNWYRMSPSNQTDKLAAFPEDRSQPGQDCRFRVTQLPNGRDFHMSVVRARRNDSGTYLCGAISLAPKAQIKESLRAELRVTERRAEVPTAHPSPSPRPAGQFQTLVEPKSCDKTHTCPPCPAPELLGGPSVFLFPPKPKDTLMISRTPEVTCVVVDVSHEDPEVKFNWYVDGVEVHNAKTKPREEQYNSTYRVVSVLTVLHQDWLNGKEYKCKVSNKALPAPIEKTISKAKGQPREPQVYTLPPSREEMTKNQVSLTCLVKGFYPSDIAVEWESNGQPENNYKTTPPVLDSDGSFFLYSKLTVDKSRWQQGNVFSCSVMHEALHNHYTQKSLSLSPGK
- test_name: SPR ProteOn XPR36, PD1-hFc immobilised, antibody as analyte
Numeric only. Scale: s⁻¹

For this binder ( PD1-45D6(A/5B5) (antibody, V domains shown, scFv-phage in the screening ELISA; whole IgG in the other assays; also called 45D6-5B5; PD1 45D6 5B5) VH: QVQLVESGGGVVQPGRSLRLSCAASGFTFRTYAMHWVRQAPGKGLEWVAVISYDGNDKYYADSVKGRFTISRDNSKNTLYLQMNSLRAEDTAVYYCVPTTFEYWGQGTLVTVSS VL: DIVMTQTPLSLPVMPGEAASISCRSSQSLLDSEDGNTYLDWYLQKPGQSPQLLIYTLSHRASGVPDRFSGSGSGTDFTLKISRVEADDVGIYYCMQRVEFPFTFGQGTKVEIK ), measured koff is 1.41e-05

Form: binder = PD1-45D6(A/5B2) (antibody, V domains shown, scFv-phage in the screening ELISA; whole IgG in the other assays; also called 45D6-5B2; PD1 45D6 5B2) VH: QVQLVESGGGVVQPGRSLRLSCAASGFTFSFYAMHWVRQAPGKGLEWVAVISYDGNDKYYADSVKGRFTISRDNSKNTLYLQMNSLRAEDTAVYYCVPTTFEYWGQGTLVTVSS VL: DIVMTQTPLSPPVTPGEPASISCRSSQSLLDSDDGNTYLDWYLQKPGQSPQLLIYTLSHRASGVPDRFSGSGSGTDFTLEISRVEAEDVGVYYCMQRRDFPFTFGQGTKLDIK ; koff = 1.93e-05

Item: PD1-49A2(A/2A6) (antibody, V domains shown, scFv-phage in the screening ELISA; whole IgG in the other assays; also called 49A2-2A6; PD1 49A2 2A6) VH: QVQLVESGGGVVQPGRSLRLSCAASGFTFKYYAMHWVRQAPGKGLEWVTVISYDGQYKYYADSVKGRFTISRDNSKNTLYLQMNSLRAEDTAVYYCTTTTFDSWGQGTLVTVSS VL: DIVMTQTPLSLPVTPGEAASISCRSSQSLLDSEDGNTYLDWYLQRPGQSPQLLIYTLSHRASGVPGRFSGSGSGTEFNLRISRVEAEDVGIYYCMQRVEFPFTFGQGTKVEIK | koff: 2.14e-05

Per the record, PD1-49A2(A/1B2) (antibody, V domains shown, scFv-phage in the screening ELISA; whole IgG in the other assays; also called 49A2-1B2; PD1 49A2 1B2) VH: QVQLVESGGGVVQPGRSLRLSCAASGFTFLRYAMHWVRQAPGKGLEWVAVISYDGQDKYYADSVKGRFTISRDNSKNTLYLQMNSLRAEDTAVYYCTTTTFDSWGRGTLVTVSS VL: DIVMTQTPLSLPVTPGEPASISCRSSQSLLDSDDGNTYLDWYLQKPGQSPQLLIYTLSHRASGVPDRFSGSGSGTEFNLRISRVEAEDVGIYYCMQRVEFPFTFGQGTKLEIK has koff of 6.39e-05

Memo: PD1-49A2 (antibody, V domains shown, scFv-phage in the screening ELISA; whole IgG in the other assays; also called Parent 49A2) VH: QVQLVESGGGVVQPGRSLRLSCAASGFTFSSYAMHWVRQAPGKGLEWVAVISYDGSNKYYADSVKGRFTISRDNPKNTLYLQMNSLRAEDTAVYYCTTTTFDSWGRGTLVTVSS VL: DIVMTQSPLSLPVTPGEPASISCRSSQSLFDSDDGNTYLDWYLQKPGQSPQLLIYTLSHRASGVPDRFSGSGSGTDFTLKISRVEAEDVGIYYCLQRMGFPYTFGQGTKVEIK , reported koff: 9.37e-05
